biological target: T1, CD3 epsilon homodimer protein (UniProt P07766 23-126); assay: SPR, antibody over immobilised CD3e homodimer;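 further: SPR at 25 °C with CD3 epsilon homodimer amine-coupled to a CM4 sensor chip and antibody flowed over as analyte in HBS-EP+ running buffer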
T1 construct: also called CD3 (CD3 epsilon)
T1 sequence (P07766 23-126): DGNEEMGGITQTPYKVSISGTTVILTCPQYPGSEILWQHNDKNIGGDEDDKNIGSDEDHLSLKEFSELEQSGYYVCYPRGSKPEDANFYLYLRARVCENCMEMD
ASSAY READOUT: KD ratio to GLS3000
The reply should be a number, written without any unit.

Data request: Which value of KD ratio to GLS3000 has been reported for CE115HA000/GLS3000 H34A (antibody, IgG1, name in Kabat numbering, V domains shown, one-arm IgG1) VH: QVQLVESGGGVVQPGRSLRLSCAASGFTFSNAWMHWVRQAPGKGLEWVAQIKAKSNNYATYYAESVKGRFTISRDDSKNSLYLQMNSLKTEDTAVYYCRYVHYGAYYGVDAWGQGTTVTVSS VL: DIVMTQSPLSLPVTPGEPASISCRSSQSLVHSNRNTYLAWYQQKPGQAPRLLIYKVSNRFSGVPDRFSGSGSGTDFTLKISRVEAEDVGVYYCGQGTQVPYTFGQGTKLEIK in the records?
Data returned: 1.18

Data request: Would you mind telling me what KD ratio to GLS3000 value was observed for CE115HA000/GLS3000 V94R (antibody, IgG1, name in Kabat numbering, V domains shown, one-arm IgG1) VH: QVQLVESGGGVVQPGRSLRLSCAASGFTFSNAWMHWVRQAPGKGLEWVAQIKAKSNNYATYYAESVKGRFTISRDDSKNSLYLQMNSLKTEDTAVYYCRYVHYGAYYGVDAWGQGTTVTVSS VL: DIVMTQSPLSLPVTPGEPASISCRSSQSLVHSNRNTYLHWYQQKPGQAPRLLIYKVSNRFSGVPDRFSGSGSGTDFTLKISRVEAEDVGVYYCGQGTQRPYTFGQGTKLEIK ?
Data returned: 1.11
